Sourced from patent US20230183352A1

SYSTEM_UNDER_TEST: T1, Claudin 18.2 (CLDN18.2), expressed on CHOS-CLDN 18.2 / HEK293-CLDN 18.2 / HCC827-CLDN 18.2 cells (human, UniProt P56856-2 1-261)
T1 construct: whole, on cells; The species is not repeated for the CHOS-CLDN 18.2 cells; also called claudin-18A2
ASSAY: FACS, CHOS-CLDN18.2 cells, 1.250 µg/ml
MEASURED_METRIC: FACS reading

>>> value("QP14371433 (antibody, human IgG1, kappa, V domains shown, Humanized from QP190191; also called QP14331437) VH: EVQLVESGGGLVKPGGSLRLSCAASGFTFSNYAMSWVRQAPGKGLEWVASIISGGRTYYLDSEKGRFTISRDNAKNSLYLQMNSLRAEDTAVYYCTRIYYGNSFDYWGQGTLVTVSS VL: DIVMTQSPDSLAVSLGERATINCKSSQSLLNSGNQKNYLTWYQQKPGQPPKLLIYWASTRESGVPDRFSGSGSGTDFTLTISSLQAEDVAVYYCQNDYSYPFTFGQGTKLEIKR")
133000
>>> value("QP14361435 (antibody, human IgG1, kappa, V domains shown, Humanized from QP190191) VH: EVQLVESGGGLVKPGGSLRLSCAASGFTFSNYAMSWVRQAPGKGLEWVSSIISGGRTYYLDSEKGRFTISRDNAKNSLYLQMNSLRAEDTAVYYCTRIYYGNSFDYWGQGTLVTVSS VL: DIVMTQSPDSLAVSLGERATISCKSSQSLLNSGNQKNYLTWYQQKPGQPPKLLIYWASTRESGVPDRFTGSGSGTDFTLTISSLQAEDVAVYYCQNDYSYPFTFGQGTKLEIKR")
141000
>>> value("QP024025 (antibody, human IgG1, V domains shown, also called IMAB362; 175D10(IMAB362)) VH: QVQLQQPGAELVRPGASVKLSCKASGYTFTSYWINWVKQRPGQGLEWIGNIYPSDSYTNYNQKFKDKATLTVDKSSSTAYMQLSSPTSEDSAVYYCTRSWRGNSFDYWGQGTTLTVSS VL: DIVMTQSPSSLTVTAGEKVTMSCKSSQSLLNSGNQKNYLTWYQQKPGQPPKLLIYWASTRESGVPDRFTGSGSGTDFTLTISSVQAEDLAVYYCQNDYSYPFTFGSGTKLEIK")
63700
>>> value("QP190191 (antibody, human IgG1, V domains shown, Chimeric; also called 36A2; mouse-derived chimeric antibody QP190191) VH: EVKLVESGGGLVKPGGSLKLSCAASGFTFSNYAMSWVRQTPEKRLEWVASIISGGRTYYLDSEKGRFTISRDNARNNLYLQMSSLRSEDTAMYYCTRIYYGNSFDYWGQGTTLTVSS VL: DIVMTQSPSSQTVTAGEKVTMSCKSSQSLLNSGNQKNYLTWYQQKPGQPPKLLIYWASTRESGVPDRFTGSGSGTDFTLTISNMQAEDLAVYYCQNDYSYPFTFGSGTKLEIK")
114000
